# Test system: S. cerevisiae SK1 pCDA2-eGFP (USY613), sporulating;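 further: active if sensitivity score above 5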
# Method Notes: CDA2-GFP sporulation assay sensitivity score (z-score vs DMSO controls); higher = stronger inhibition of sporulation, active = hit call of the paper
Where a name gives a salt, the structure may show the parent alone.
The threshold is inclusive: CDA2-GFP sporulation assay sensitivity score of exactly 1 counts as condition met; values below receive condition not met.

These recorded examples may help you get a feel for the data.
Ask: Reported CDA2-GFP sporulation assay sensitivity score reaches at least 1 for CCCc1c(OCCCCc2nnn[nH]2)ccc(C(C)=O)c1O (stock concentration (mM, diluted 1:100): 10) ?
Reply: condition not met

Ask: Quick check, CDA2-GFP sporulation assay sensitivity score >= 1? Cc1sc(N)c(C(=O)c2cccc(C(F)(F)F)c2)c1C (stock concentration (mM, diluted 1:100): 10)
Reply: condition met

New cases:
Ask: Tell me whether CDA2-GFP sporulation assay sensitivity score is at least 1 here: Cc1nc2ccccn2c(=O)c1CCN1CCC(C(=O)c2ccc(F)cc2)CC1 [Pirenperone] (stock concentration (mM, diluted 1:100): 10)
Reply: condition met

Ask: # bool: CDA2-GFP sporulation assay sensitivity score of CCCN[C@H]1CCc2nc(N)sc2C1 [Pramipexole hydrochloride] (stock concentration (mM, diluted 1:100): 7.1) >= 1
Reply: condition not met

Ask: Form field: CDA2-GFP sporulation assay sensitivity score at least 1? Entry: C[C@]12CC[C@@H]3c4ccc(O)cc4CC[C@H]3[C@@H]1CC[C@@H]2O [Beta-Estradiol] (stock concentration (mM, diluted 1:100): 10)
Reply: condition not met

Ask: Can Cc1cc2c(s1)Nc1ccccc1N=C2N1CCN(C)CC1 [Olanzapine] (stock concentration (mM, diluted 1:100): 9.9) be said to have CDA2-GFP sporulation assay sensitivity score at or above 1?
Reply: condition met

Ask: Given COc1ccc(CN2CCN(C(c3ccc(F)cc3)c3ccc(F)cc3)CC2)c(OC)c1OC [Lomerizine dihydrochloride] (stock concentration (mM, diluted 1:100): 8.7) , state whether its CDA2-GFP sporulation assay sensitivity score is at least 1.
Reply: condition met

Ask: Check the entry CC[C@H]1OC(=O)[C@H](C)C(=O)[C@H](C)[C@@H](O[C@@H]2O[C@H](C)C[C@H](N(C)C)[C@H]2O)[C@](C)(OC)C[C@@H](C)C(=O)[C@H](C)[C@H]2N(CCCCn3cnc(-c4cccnc4)c3)C(=O)O[C@]12C [Telithromycin] (stock concentration (mM, diluted 1:100): 10) : does CDA2-GFP sporulation assay sensitivity score equal or exceed 1?
Reply: condition met

Ask: # bool: CDA2-GFP sporulation assay sensitivity score of CC1(C)C[C@@H]1C(=O)N/C(=C\CCCCSC[C@H](N)C(=O)O)C(=O)O [Cilastatin] (stock concentration (mM, diluted 1:100): 9.4) >= 1
Reply: condition not met

Ask: Please check the record Clc1ccccc1C(c1ccccc1)(c1ccccc1)n1ccnc1 [Clotrimazole] (stock concentration (mM, diluted 1:100): 10) and state if its CDA2-GFP sporulation assay sensitivity score is at or above 1.
Reply: condition met

Ask: Could you verify whether the entry CC1CCN(CCCC(=O)c2ccc(F)cc2)CC1 [Metylperon] (stock concentration (mM, diluted 1:100): 10) shows CDA2-GFP sporulation assay sensitivity score of no less than 1?
Reply: condition met

Ask: Answer whether CDA2-GFP sporulation assay sensitivity score of N[C@@H]1CONC1=O [D-Cycloserine] (stock concentration (mM, diluted 1:100): 10) is greater than or equal to 1.
Reply: condition not met
